- Test system: 171881-019-R-J1-PDC complex spheroid growth, % test/control;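 further: spheroids exposed to compounds for 7 days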
- Method: Anticancer human tumor 171881-019-R-J1-PDC patient-derived invasive breast carcinoma cell line growth inhibition [Asc]
- Test Settings: second compound 0.0316 µM; first compound 0.01 µM; hits give low values
Recorded Endpoint: viability, T/C (%)
// units = %; emit number, no label

Query: viability, T/C; subject: COc1c(OCCCN2CCOCC2)ccc2c3n(c(=NC(=O)c4cnc(N)nc4)nc12)CCN3 + CNC(C)C(=O)NC1CN(S(=O)(=O)c2cccc(S(=O)(=O)N3CCC4CCC(C(=O)NC(c5ccccc5)c5ccccc5)N4C(=O)C(NC(=O)C(C)NC)C3)c2)CCC2CCC(C(=O)NC(c3ccccc3)c3ccccc3)N2C1=O
137

Entry O=C(c1ccc(F)c(F)c1Nc1ccc(I)cc1F)N1CC(O)([C@@H]2CCCCN2)C1 + CNC(C)C(=O)NC1CN(S(=O)(=O)c2cccc(S(=O)(=O)N3CCC4CCC(C(=O)NC(c5ccccc5)c5ccccc5)N4C(=O)C(NC(=O)C(C)NC)C3)c2)CCC2CCC(C(=O)NC(c3ccccc3)c3ccccc3)N2C1=O : reported viability, T/C = ?
98.2

Would you mind telling me what viability, T/C value was observed for Cn1ncnc1[C@H]1c2n[nH]c(=O)c3cc(F)cc(c23)N[C@@H]1c1ccc(F)cc1 + CNC(C)C(=O)NC1CN(S(=O)(=O)c2cccc(S(=O)(=O)N3CCC4CCC(C(=O)NC(c5ccccc5)c5ccccc5)N4C(=O)C(NC(=O)C(C)NC)C3)c2)CCC2CCC(C(=O)NC(c3ccccc3)c3ccccc3)N2C1=O ?
104

// returns reported viability, T/C for input CCN1CCN(Cc2ccc(Nc3ncc(F)c(-c4cc(F)c5nc(C)n(C(C)C)c5c4)n3)nc2)CC1 + CNC(C)C(=O)NC1CN(S(=O)(=O)c2cccc(S(=O)(=O)N3CCC4CCC(C(=O)NC(c5ccccc5)c5ccccc5)N4C(=O)C(NC(=O)C(C)NC)C3)c2)CCC2CCC(C(=O)NC(c3ccccc3)c3ccccc3)N2C1=O
97.9

For the compound shown here, NC1CCC(NC2CC2c2ccccc2)CC1 (stereo not given) + CNC(C)C(=O)NC1CN(S(=O)(=O)c2cccc(S(=O)(=O)N3CCC4CCC(C(=O)NC(c5ccccc5)c5ccccc5)N4C(=O)C(NC(=O)C(C)NC)C3)c2)CCC2CCC(C(=O)NC(c3ccccc3)c3ccccc3)N2C1=O , give the reported viability, T/C.
84.9

meta.source: PubChem BioAssay AID1963428
